Answer each item with its documented TGI.
test system: HCC-2998 colon; experiment: NCI tumour cell line growth inhibition, 48 h

>>> result("Cc1cc(C)cc(Nc2cc(C)nc3nc(C(F)(F)F)nn23)c1")
"> 100000 nM"
>>> result("CC/C(=N/O)c1ccc(Br)s1")
"> 100000 nM"
>>> result("COc1cc(C2c3cc4c(cc3[C@H](OCCN(C)C)[C@@H]3COC(=O)C23)OCO4)cc(OC)c1O (stereo not given in full)")
"2550 nM"
>>> result("CN(CCCNc1ccc2ncn3c4ccccc4c(=O)c1c23)CCCN1C(=O)c2cccc3cc([N+](=O)[O-])cc(c23)C1=O")
"91.6 nM"

Now consider a different compound.
Would you mind telling me what TGI value was observed for CCOCNC(=O)N(COCC)COCC ?
> 100000 nM

----------
tested on: HS 578T breast; test: NCI tumour cell line growth inhibition, 48 h; in the data active means GI50 below about 0.43 µM; inactive means the rest
Outcome field: choose from 1 = active, -1 = inactive

>>> group("Cc1cc(C)cc(Nc2cc(C)nc3nc(C(F)(F)F)nn23)c1")
-1
>>> group("Cc1cc(C2CCCCC2)n(O)c(=O)c1")
-1
>>> group("CC(C)CSc1nc(Nc2ccccc2)c(C#N)c(-c2ccc(F)cc2)n1")
-1

Recorded test outcome, item COc1ccc2cc(C(=O)/C=C/c3cccc(OC)c3OC)ccc2c1
-1

Recorded test outcome, item CCOC(=O)c1c(C)n(Cc2ccc(OC)cc2)c2c1cc(O)c1[nH]c3c(c12)CCCC3
-1

Recorded test outcome, item CC[C@H](C)[C@H](NC(=O)[C@H]1CCCCN1C)C(=O)N(C)[C@H](CCc1nc(C(=O)N[C@@H](Cc2ccccc2)C[C@H](C)C(=O)OC)cs1)C(C)C
1

----------
Answer each item with its documented TGI.
test system: T-47D breast; assay: NCI tumour cell line growth inhibition, 48 h

Known TGI results, listed for orientation:
>>> result("COc1cccc(N=Cc2c3ccccc3c(=O)n3c2oc2ccccc23)c1")
"> 100 µM"
>>> result("COc1cc([N+](=O)[O-])ccc1NC(=O)C(F)(F)F")
"> 100 µM"
>>> result("c1ccc2c(c1)nc1n2CNCC1")
"> 100 µM"
>>> result("CCOC(=O)c1c(SC(=O)/C=C/c2ccccc2)n(-c2ccccc2)c(=S)n(-c2ccccc2)c1=O")
"> 100 µM"

Below are some compounds; for each one, tell me its TGI.
1. Cc1c(Cc2ccccc2)n(COCCCO)c(=O)[nH]c1=O
2. COc1ccc(/C(=N/Nc2ccc([N+](=O)[O-])cc2)Sc2cc(Cl)c(C)cc2S(N)(=O)=O)cc1
3. CC(=O)OC[C@H]1[C@@H]2C(CC[C@]13CO3)OC(=O)CC(C)[C@]2(C)CCc1ccoc1 (some centres not stated)
4. CN(C)C(=S)SN(C)C(=O)Nc1ccccc1
5. CCOC(=O)C(Cl)(NC(=O)c1ccc(F)cc1)C(F)(F)F (configuration not stated)
6. O=[N+]([O-])c1ccc2nnnn2c1
7. CN1CCC(OC(=O)Oc2ccccc2)(c2ccccc2)CC1
8. O=C1SCC(O)=C1/C=N/Nc1nc2ccccc2o1

1: > 100 µM; 2: 19.2 µM; 3: > 100 µM; 4: 99.1 µM; 5: > 100 µM; 6: > 100 µM; 7: 52.1 µM; 8: 54.7 µM

Below are some compounds; for each one, tell me its TGI.
1. CCSc1nc(N2CCOCC2)c2cn[nH]c2n1
2. CC(C(=O)N1c2ccccc2Sc2ccccc21)N1c2ccccc2Sc2ccccc21 (configuration not stated)
3. O=C1NC(Nc2cccc(Cl)c2)=N/C1=C\c1ccc(Cl)c(Cl)c1
4. S=C1Cc2c([nH]c3ccccc23)-c2ccccc2N1
5. Cc1cc(C)cc(Nc2nnc3n2S(=O)(=O)c2cc(C#N)c(Cl)cc2S3)c1
6. Cc1cc(O)c(/C=N/C(=S)NCCc2ccccc2)c(=O)o1

["> 100 µM", "> 100 µM", "14.2 µM", "> 100 µM", "31.6 µM", "> 100 µM"]

Below are some compounds; for each one, tell me its TGI.
1. COc1cc([C@@H]2c3cc4c(cc3C(O[C@@H]3O[C@@H]5CO[C@@H](c6cccs6)OC5[C@H](O)[C@H]3O)C3COC(=O)[C@@H]32)OCO4)cc(OC)c1O (some centres not stated)
2. COc1cc2c3c(n(CCCCl)c(=O)c2cc1OC)-c1ccccc1C3=O
3. O=C(O)C(Sc1ccc(Cl)cc1)Sc1ccc(Cl)cc1
4. Cc1[nH]c(=O)[nH]c(=S)c1C(=O)NC(C)(CO)CO

["0.434 µM", "> 100 µM", "> 100 µM", "> 100 µM"]

----------
test system: CCRF-CEM leukemia; experiment: NCI tumour cell line growth inhibition, 48 h
Answer each item with its documented GI50.

Known GI50 results, listed for orientation:
>>> result("Cn1cc(-c2csc(-c3cccc(F)c3)n2)c2cccnc21")
"35.9 µM"
>>> result("C[C@]12CC[C@@H]3c4ccc(Oc5nc(N6CC6)nc(N6CC6)n5)cc4CC[C@H]3[C@@H]1CCC2=O")
"1.6 µM"
>>> result("Cc1c2c(nn1-c1ccc(S(=O)(=O)/N=C3\\SCC(=O)N3C(=O)c3ccccc3)cc1)-c1ccccc1CC2")
"21 µM"
>>> result("CCOC(=O)c1c(C)n(Cc2ccc(OC)cc2)c2c1cc(O)c1[nH]c3c(c12)CCCC3")
"4.22 µM"

Now consider a different molecule.
Would you mind telling me what GI50 value was observed for Cn1cc(C2=C(c3cn(C)c4c(N)cccc34)C(=O)NC2=O)c2ccccc21 ?
0.797 µM

----------
test system: UACC-62 melanoma; assay: NCI tumour cell line growth inhibition, 48 h; in the data active means GI50 below about 0.43 µM; inactive means the rest
Outcome field: choose from class 1 for active, class 0 for inactive

>>> group("CC(C)CSc1nc(Nc2ccccc2)c(C#N)c(-c2ccc(F)cc2)n1")
"class 0"
>>> group("CCCCn1c(-c2ccc(C(=O)O/N=C(\\N)c3ccc(OC)cc3)cc2)nc(-c2ccccc2)c1-c1ccccc1")
"class 0"
>>> group("Cn1cc(C2=C(c3cn(C)c4c(N)cccc34)C(=O)NC2=O)c2ccccc21")
"class 0"
>>> group("NCCCCn1c2c(c3ccccc3c1=O)C(=O)c1ccccc1-2")
"class 1"
>>> group("Cc1cc(C2CCCCC2)n(O)c(=O)c1")
"class 0"

Recorded test outcome, item COc1cc2c3c(n(CCCCl)c(=O)c2cc1OC)-c1ccccc1C3=O
class 0

Recorded test outcome, item O=C(CCCSc1nc(-c2ccc(Cl)cc2)cc(-c2ccc(Cl)cc2)n1)NO
class 0

Recorded test outcome, item COc1cc2c3c(n(CCCBr)c(=O)c2cc1OC)-c1ccc(NC(C)=O)cc1C3=O
class 0

Recorded test outcome, item C[C@]12CC[C@@H]3c4ccc(O)cc4C[C@@H](CCCCCCCCCS(=O)CCCC(F)(F)C(F)(F)F)[C@H]3[C@@H]1CC[C@@H]2O (stereo not given in full)
class 0

Recorded test outcome, item COc1ccc(/C(=N/Nc2ccc([N+](=O)[O-])cc2)Sc2cc(Cl)c(C)cc2S(N)(=O)=O)cc1
class 0

Recorded test outcome, item CCCCNC(=O)NS(=O)(=O)c1ccc(N2N=C(c3ccc(C)cc3C)CC2c2ccc(N(C)C)cc2)cc1 (stereo not given)
class 0

Recorded test outcome, item CCCCCCCCCCC(O)C1CCC(C2CCC(C(O)CCCCC(O)CCCCCC(O)CC3=CC(C)OC3=O)O2)O1 (stereo not given)
class 0

----------
test system: M14 melanoma; assay: NCI tumour cell line growth inhibition, 48 h
quantity_kind: TGI

>>> result("O=c1c2ccccc2nnn1-c1n[nH]c2ccccc12")
"> 100 µM"
>>> result("COC(=O)C1=C(c2ccc3c(c2)OCO3)O[C@H](c2ccc3c(c2)OCO3)[C@H]1COC(C)=O")
"> 100 µM"
>>> result("COc1ccc(S(=O)(=O)N(Cc2ccc3c(n2)C=CC(C)(C)O3)C2CCC2)cc1OC")
"0.228 µM"

Below are some molecules; for each one, tell me its TGI.
1. CC1=CC(=O)NP(=O)(Oc2ccc(C)cc2)N1 (stereo not drawn)
2. CNC=O.[O]=[Ge].[O]=[Ge].[O]=[Ge].[O]=[Ge][OH].[O]=[Ge][OH]
3. CCOC(=O)/C(O)=C(/C=NC(=S)c1ccncc1)C(=O)OCC
4. Cc1oc2nc(N(C)C)nc(Cl)c2c1C

1: > 100 µM; 2: > 100 µM; 3: > 100 µM; 4: > 100 µM

Below are some molecules; for each one, tell me its TGI.
1. C[C@]12CC[C@@H]3c4ccc(O)cc4C[C@@H](CCCCCCCCCS(=O)CCCC(F)(F)C(F)(F)F)[C@H]3[C@@H]1CC[C@@H]2O (stereo partly drawn)
2. CCOC(=O)N/N=C(/N)Cc1ccccc1

> 100 µM
> 100 µM

Below are some molecules; for each one, tell me its TGI.
1. Brc1ccc2c(-c3nc(-c4c[nH]c5ccc(Br)cc45)cs3)c[nH]c2c1
2. CC[C@@H]1/C=C/C=C/C[C@H](C)[C@@H](O)[C@](C)(O)C(=O)[C@H](C)[C@@H](O)[C@H](C)C(=O)[C@H](C)[C@@H](O)[C@H](C)/C=C/C(=O)O[C@H]2[C@@H](C)[C@@H](CC1)O[C@]1(O[C@H](CC(C)O)[C@H](C)CC1=O)[C@@H]2C (stereo partly drawn)
3. C[C@]12CC[C@@H]3c4ccc(Oc5nc(N6CC6)nc(N6CC6)n5)cc4CC[C@H]3[C@@H]1CCC2=O
4. CCCN=C(NC(=O)c1ccc(Cl)cc1)SC
5. NC1C2(CCCCCC2)NC(=O)C12CCCCCC2 (stereo not drawn)
6. N#CCCN(CCC#N)c1ccc(C(=O)NN)cc1
7. COC(=O)C1(c2ccc(N(C)C)cc2OC)CCCN(C(=O)Oc2ccccc2[N+](=O)[O-])CCc2c1[nH]c1ccccc21 (stereo not drawn)
8. COc1cc([N+](=O)[O-])ccc1NC(=O)C(F)(F)F

1. 13.8 µM
2. 9.41 µM
3. 21.7 µM
4. > 100 µM
5. > 100 µM
6. > 100 µM
7. > 100 µM
8. > 100 µM
